- test-description: Mouse PK of G7883, SC in sunflower oil
- Format: in vivo
- measurement-context: plasma, 250 mg/kg, SC 250 mpk, sunflower oil suspension, mean ± SD
parameter-measured: Tmax (h)
# number only, unit h dropped from output

[in] # get_value(readout='Tmax', item= `Cc1nccnc1-c1nn2c(=O)cc(-c3ccc(C4CCCCC4)cc3)[nH]c2c1C(=O)N1CC(CF)C1` )
[out] 2.67

---

- test-description: Mouse PK of G7883, PO in MCT vehicle
- Format: in vivo, female CD-1 mice
- measurement-context: female, CD-1, plasma, 25 mg/kg, PO 25 mpk, mean ± SD
parameter-measured: Cmax (nM)
# number only, unit nM dropped from output

[in] # get_value(readout='Cmax', item= `Cc1nccnc1-c1nn2c(=O)cc(-c3ccc(C4CCCCC4)cc3)[nH]c2c1C(=O)N1CC(CF)C1` )
[out] 1250
